- Tested On: PHL (Photorhabdus asymbiotica, UniProt C7BLE4)
- Sequence (C7BLE4 entry or part of it): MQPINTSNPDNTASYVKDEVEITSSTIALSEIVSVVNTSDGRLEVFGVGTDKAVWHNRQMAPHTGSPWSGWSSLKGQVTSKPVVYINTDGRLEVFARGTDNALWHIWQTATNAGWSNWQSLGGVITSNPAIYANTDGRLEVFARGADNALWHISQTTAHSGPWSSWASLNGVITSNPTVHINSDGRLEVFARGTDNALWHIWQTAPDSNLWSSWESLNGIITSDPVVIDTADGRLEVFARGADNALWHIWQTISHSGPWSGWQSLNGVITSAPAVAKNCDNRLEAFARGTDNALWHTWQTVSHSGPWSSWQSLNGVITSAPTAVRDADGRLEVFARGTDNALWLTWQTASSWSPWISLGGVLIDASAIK
- Protocol Description: SPR competitive inhibition of PHL binding to α-L-fucoside sensor chip
- Details: basic unit azide 1
Measured β Azide1 (affinity improvement factor) of individual entries

{"columns": ["Molecule", "β Azide1 (affinity improvement factor)"],
 "data": [
  ["C[C@@H]1O[C@@H](CCn2cc(COCC(COCc3cn(CC[C@@H]4O[C@@H](C)[C@@H](O)[C@@H](O)[C@@H]4O)nn3)(COCc3cn(CC[C@@H]4O[C@@H](C)[C@@H](O)[C@@H](O)[C@@H]4O)nn3)COCC(COCc3cn(CC[C@@H]4O[C@@H](C)[C@@H](O)[C@@H](O)[C@@H]4O)nn3)(COCc3cn(CC[C@@H]4O[C@@H](C)[C@@H](O)[C@@H](O)[C@@H]4O)nn3)COCc3cn(CC[C@@H]4O[C@@H](C)[C@@H](O)[C@@H](O)[C@@H]4O)nn3)nn2)[C@@H](O)[C@H](O)[C@@H]1O", 52],
  ["C[C@@H]1O[C@@H](CCN=[N+]=[N-])[C@@H](O)[C@H](O)[C@@H]1O [Azide 1]", 1],
  ["C[C@@H]1O[C@@H](CCn2cc(COc3c4cc(C(C)(C)C)cc3Cc3cc(C(C)(C)C)cc(c3OCc3cn(CC[C@@H]5O[C@@H](C)[C@@H](O)[C@@H](O)[C@@H]5O)nn3)Cc3cc(C(C)(C)C)cc(c3OCc3cn(CC[C@@H]5O[C@@H](C)[C@@H](O)[C@@H](O)[C@@H]5O)nn3)Cc3cc(C(C)(C)C)cc(c3OCc3cn(CC[C@@H]5O[C@@H](C)[C@@H](O)[C@@H](O)[C@@H]5O)nn3)C4)nn2)[C@@H](O)[C@H](O)[C@@H]1O", 15]
]}

###

# PotencyL-Fuc values compiled below
- Tested On: UniProtKB C7BLE4
- Protocol Description: SPR competitive inhibition of PHL binding to α-L-fucoside sensor chip
- Details: IC50 L-fucose / IC50 ligand

{"columns": ["Compound", "PotencyL-Fuc"],
 "data": [
  ["C[C@@H]1O[C@@H](CCN=[N+]=[N-])[C@@H](O)[C@H](O)[C@@H]1O [Azide 1]", 32],
  ["C[C@@H]1O[C@@H](CCn2cc(COCC(COCc3cn(CC[C@@H]4O[C@@H](C)[C@@H](O)[C@@H](O)[C@@H]4O)nn3)(COCc3cn(CC[C@@H]4O[C@@H](C)[C@@H](O)[C@@H](O)[C@@H]4O)nn3)COCc3cn(CC[C@@H]4O[C@@H](C)[C@@H](O)[C@@H](O)[C@@H]4O)nn3)nn2)[C@@H](O)[C@H](O)[C@@H]1O [Dendrimer 8]", "1,922"],
  ["C[C@@H]1OC(CCCCC2O[C@@H](C)[C@@H](O)[C@@H](O)[C@@H]2O)[C@@H](O)[C@H](O)[C@@H]1O (some centres unmarked) [Difucoside 5, 1,4-bis(fucopyranosyl)butane]", 86],
  ["CO[C@@H]1O[C@@H](C)[C@@H](O)[C@@H](O)[C@@H]1O [α-Me-Fuc, methyl α-L-fucopyranoside, reference compound]", 9],
  ["C[C@H](O)[C@@H](O)[C@@H](O)[C@H](O)C=O [L -Fuc, L-fucose, reference compound]", 1]
]}
